The origin of these recorded values is patent US20250019450A1.

System Name: T1, human IL-12RB1 overexpressed on 293T cells (Example 2) (human, UniProt P42701 24-662)
T1 construct: whole, on cells
Test Details: FACS, hybridoma supernatant, 293T
The following binders are listed with their measured Fold over parental 293T values.
The reply should contain only the number, in fold.

Per the record, 85801_01002 (antibody, V domains shown, also called 85801_01O02A) VH: QVQLVQSGAEVRKPGASVKVSCKASGYTFTDYYMHWVRQAPGQGLEWMGWINPDNGGANYAQRFLGRVTMTRDTSISTAYMELSRLRSDDTAVYYCAREGSGSPYAFDLWGLGTVVTVSS VL: DIQLTQSPSFLSASVGDRVTITCRASQGISSYLAWYQQKPGKAPKLLIYAASTLQSGVPSRFSGSGSGTEFTLTISSLQPEDFATYCCQQLNRYPFTFGQGTKLEIK has Fold over parental 293T of 107

Per the record, 85801_10M19 (antibody, V domains shown, also called 85801_10M19A) VH: EVQLVESGGGLVQPGGSLRLSCAASGFTFSSYDMHWVRQATGKGLEWVSVIGTAGDTYYPGSVKGRFTISRENAKNSLYLQMNSLRAGDTAVYYCARSRGETDWYFDLWGRGTLVTVSS VL: EIVLTQSPATLSLSPGERATLSCRASQSVSRLLAWYQQKPGQAPRLLIYDASNRATGIPARFSGSGSGTDFTLTISSLEPEDFAVYYCQQRRNWLTFGGGTKVEIK has Fold over parental 293T of 58
